// data source = paper PMC7096758

experimental_protocol: Cytotoxicity in mammalian cells
Assay type: cell-based, BALB/c mice
measurement_setup: BALB/c, mouse, bone marrow-derived macrophages (BMDM)
parameter_measured: CC50 at 24 h

1) CC1(C)CC(=O)c2cc(CNC(=O)C/C=C/c3ccccc3)ccc2N1 [Compound 14e]: > 40 µM
2) CCCCCCCCNCc1ccc2c(c1)C(=O)CC(C)(C)O2 [Compound 13c]: 40.2 µM
3) C/C=C(\C)C(=O)NCc1ccc2c(c1)C(=O)CC(C)(C)N2 [Compound 14c]: > 40 µM
4) C/C=C/C(=O)NCc1ccc2c(c1)C(=O)CC(C)(C)N2 [Compound 14b]: > 40 µM
5) CC(C)=CC(=O)NCc1ccc2c(c1)C(=O)CC(C)(C)N2 [Compound 14d]: > 40 µM
6) CC1(C)CC(=O)c2cc(CNC(=O)/C=C/c3cccs3)ccc2N1 [Compound 14f]: > 40 µM
7) C[C@@H]1[C@H](O)[C@@H](C)/C=C/C=C/C=C/C=C/C=C/C=C/C=C/[C@H](O[C@@H]2O[C@H](C)[C@@H](O)[C@H](N)[C@@H]2O)C[C@@H]2O[C@](O)(C[C@@H](O)C[C@@H](O)[C@H](O)CC[C@@H](O)C[C@@H](O)CC(=O)O[C@H]1C)C[C@H](O)[C@H]2C(=O)O [Amphotericin B, reference compound]: 4.37 µM
